# test name: Solution stability test (residual ratio and generation of active form in buffers of pH 2.0 to 9.0)
# Format: physicochemical
# measurement context: pH9.0 buffer, 25° C., 25 umol/L, 0 hr
Structures can show the parent of a compound that is named as a salt.
reported property: Residual ratio (%)

CC(=O)c1cc2c(O)c3c(O)cccc3c(OC(=O)NCCCN)c2o1 [Reference Example 9, hydrochloride]; 75.3
C[C@H]1COc2c1c(OC(=O)NCCCNCC(=O)O)c(OC(=O)NCCCNCC(=O)O)c1c3c(ccc21)C(C)(C)CCC3 [Example 13, dihydrochloride]; 100
CN1CC[C@H](c2c(OC(=O)N(C)CCN)cc(O)c3c(=O)cc(-c4ccccc4Cl)oc23)[C@H](O)C1; 9.7
Cc1cc(OC(=O)NCCNCC(=O)O)c2ccccc2c1OC(=O)NCCNCC(=O)O [Example 2, dihydrochloride]; 44.5
NCCCNC(=O)Oc1c(OC(=O)NCCCN)c(-c2ccccc2)c2c(c1-c1ccccc1)OCO2; 10.4

The values you see were collected from patent US20200207782A1.
